Sourced from patent US20250011363A1

- experimental_system: acetylcholine receptor
- protocol_details: SPR, AchR immobilized on CM5 chip, peptide 10 uM
measurement_kind: Binding affinity (RU)
// units = RU; emit number, no label

binder="KRVVYK [6mer-1-362]" measurement_kind="Binding affinity (RU)" reported=133
binder="RRHNHR [6mer-1-777]" measurement_kind="Binding affinity (RU)" reported=16
binder="KKESIK [6mer-1-787]" measurement_kind="Binding affinity (RU)" reported=16
binder="KKRQTK [6mer-1-395]" measurement_kind="Binding affinity (RU)" reported=125
binder="RKRFCR [6mer-1-342]" measurement_kind="Binding affinity (RU)" reported=131

(Q) Fill in: Binding affinity (RU) of RKVFRK [6mer-1-352] is ___
(A) 142

(Q) I would be grateful if you could share the reported Binding affinity (RU) for KRWFCR [6mer-1-366] .
(A) 133

(Q) Fill blank: measured Binding affinity (RU) of the binder KRWITR [6mer-1-377] is ____.
(A) 148

(Q) Fill in the blank: the reported Binding affinity (RU) of RRQRCK [6mer-1-391] is ____.
(A) 131

(Q) Which Binding affinity (RU) is reported for this binder? RKSRRR [6mer-1-337]
(A) 144

(Q) I would be grateful if you could share the reported Binding affinity (RU) for KKQFQK [6mer-1-374] .
(A) 148
